# TARGET_UNDER_TEST: T1, recombinant human CD30 extra cellular domain (ECD) protein (human, UniProt P28908 19-379)
# T1 construct: Bought from R&D systems; also called rhCD30; human CD30 ECD
# T1 sequence: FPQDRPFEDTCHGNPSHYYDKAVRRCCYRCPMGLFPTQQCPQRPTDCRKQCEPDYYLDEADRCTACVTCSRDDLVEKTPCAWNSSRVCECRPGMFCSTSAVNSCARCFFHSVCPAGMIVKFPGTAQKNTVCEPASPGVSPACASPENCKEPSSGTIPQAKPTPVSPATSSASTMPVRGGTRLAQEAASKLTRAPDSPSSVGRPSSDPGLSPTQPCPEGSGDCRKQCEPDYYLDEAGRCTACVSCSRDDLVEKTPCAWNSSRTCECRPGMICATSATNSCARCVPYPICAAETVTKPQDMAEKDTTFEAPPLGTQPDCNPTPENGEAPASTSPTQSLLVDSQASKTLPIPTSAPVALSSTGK
# PROCEDURE_TEXT: SPR Biacore T200, His-tagged sdAb/Fab captured, 100.0 nM human CD30 as analyte, single curve
Let's look at some binders and their measured kon.
Reply with just the number (in M⁻¹ s⁻¹).

AS53574 sdAb (VHH, Camel sdAb) VHH: QVKLVESGGGSVQAGGSLRLSCAASGYIYSSNCMGWFRQAPGKEREWVARIHTGSGSTYYADSVKGRFTISQDNAKNTVYLQMNSLRPEDTAMYDCAAGRVVLGAVVCTNEYWGQGTQVTVSS | 69000

Quick one: give measured kon for AS54233 sdAb (VHH, Camel sdAb) VHH: QVQLVESGGGSVQAGETLRLSCTASGFTFDGPDMAWYRQAPGNECELVSIISADGRTYYTDSVKGRFTASQDNAKNTVSLYLKSLQPEDTAVYYCAADPRRNCRGNCCGNWGPGTQVTVSS
61000
